Data provenance is paper PMC10692362.

target: human ERα LBD (Homo sapiens); assay: Competitive fluorescence polarization binding assay, ERα; details: IC50 estradiol/IC50 compound × 100, estradiol = 100%
OUTCOME_MEASURE: RBA ERα (%)
Write the value in % as a bare number.

Completed entries (count: 6):
C/C=C/C(=O)Nc1ccc(OS(=O)(=O)C2CC3OC2C(c2ccc(O)cc2)=C3c2ccc(O)cc2)cc1 (stereo not shown) [Compound 26b] : 4.77
C=CC(=O)Nc1ccc(C2=C(c3ccc(O)cc3)C3OC2CC3S(=O)(=O)Oc2ccccc2)cc1 (stereo not shown) [Compound 28a] : 18.55
C/C=C/C(=O)Nc1ccc(C2=C(c3ccc(O)cc3)C3OC2CC3S(=O)(=O)Oc2ccccc2)cc1 (stereo not shown) [Compound 28b] : 14.08
CC(C)=CC(=O)Nc1ccc(C2=C(c3ccc(O)cc3)C3CC(S(=O)(=O)N(CC(F)(F)F)c4ccccc4)C2O3)cc1 (stereo not shown) [Compound 29e] : 9.50
CC(C)=CC(=O)Nc1ccc(C2=C(c3ccc(O)cc3)C3OC2CC3S(=O)(=O)N(CC(F)(F)F)c2ccc(F)cc2)cc1 (stereo not shown) [Compound 29g] : 7.52
C#CC(=O)Nc1ccc(OS(=O)(=O)C2CC3OC2C(c2ccc(O)cc2)=C3c2ccc(O)cc2)cc1 (stereo not shown) [Compound 26d] : 0.85

Here is another molecule to look at.
For O=C(CCl)Nc1ccc(C2=C(c3ccc(O)cc3)C3CC(S(=O)(=O)Oc4ccccc4)C2O3)cc1 (stereo not shown) [Compound 28d] the molecule record lists RBA ERα as 3.46

---

target: human ERα LBD (Homo sapiens); assay: Competitive fluorescence polarization binding assay, ERα; details: IC50 estradiol/IC50 compound × 100, estradiol = 100%
OUTCOME_MEASURE: RBA ERα (%)
Write the value in % as a bare number.

Completed entries (count: 4):
COc1ccc(N(CC(F)(F)F)S(=O)(=O)C2CC3OC2C(c2ccc(O)cc2)=C3c2ccc(NC(=O)C=C(C)C)cc2)cc1 (stereo not drawn) [Compound 29f] : 14.48
CC(C)CC(=O)Nc1ccc(C2=C(c3ccc(O)cc3)[C@H]3O[C@@H]2CC3S(=O)(=O)N(CC(F)(F)F)c2ccc(O)cc2)cc1 (mixture of isomers) [Compound 29k] : 2.41
CC(C)=CC(=O)Nc1ccc(OS(=O)(=O)C2CC3OC2C(c2ccc(O)cc2)=C3c2ccc(O)cc2)cc1 (stereo not drawn) [Compound 26c] : 3.28
O=C(CBr)Nc1ccc(C2=C(c3ccc(O)cc3)C3OC2CC3S(=O)(=O)Oc2ccccc2)cc1 (stereo not drawn) [Compound 28e] : 9.44

Readout RBA ERα for CC(C)=CC(=O)Nc1ccc(C2=C(c3ccc(O)cc3)C3CC(S(=O)(=O)N(CC(F)(F)F)c4ccc(C)cc4)C2O3)cc1 (stereo not drawn) [Compound 29d] , test system human ERα LBD (Homo sapiens), was 6.49

Readout RBA ERα for CCN(c1ccc(O)cc1)S(=O)(=O)C1CC2OC1C(c1ccc(O)cc1)=C2c1ccc(NC(=O)C=C(C)C)cc1 (stereo not drawn) [Compound 29i] , test system human ERα LBD (Homo sapiens), was 29.85

---

Target: ERα (Homo sapiens)
Sequence (P03372 1-595): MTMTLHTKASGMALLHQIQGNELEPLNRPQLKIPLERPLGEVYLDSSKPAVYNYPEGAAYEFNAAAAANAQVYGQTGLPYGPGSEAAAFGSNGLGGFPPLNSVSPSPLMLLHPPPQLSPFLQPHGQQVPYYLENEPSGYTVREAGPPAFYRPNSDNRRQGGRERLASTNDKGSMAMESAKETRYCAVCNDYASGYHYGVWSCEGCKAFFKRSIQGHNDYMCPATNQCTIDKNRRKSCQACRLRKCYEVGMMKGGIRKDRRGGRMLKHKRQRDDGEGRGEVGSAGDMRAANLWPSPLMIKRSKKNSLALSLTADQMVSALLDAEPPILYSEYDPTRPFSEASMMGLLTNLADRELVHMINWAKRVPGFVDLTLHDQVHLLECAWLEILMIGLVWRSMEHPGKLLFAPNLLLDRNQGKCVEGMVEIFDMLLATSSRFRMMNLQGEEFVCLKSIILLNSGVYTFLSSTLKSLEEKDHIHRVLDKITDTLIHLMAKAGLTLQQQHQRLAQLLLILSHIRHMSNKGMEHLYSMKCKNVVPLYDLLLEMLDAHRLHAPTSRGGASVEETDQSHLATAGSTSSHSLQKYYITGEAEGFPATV
Assay: cell-based
Format: cell-based
Conditions: with 10 nmol/L 17β-estradiol
OUTCOME_MEASURE: Antagonist mode ERα Eff (%E2)
Be sure to follow the number with its unit.

Completed entries (count: 3):
CCN(c1ccc(O)cc1)S(=O)(=O)C1CC2OC1C(c1ccc(O)cc1)=C2c1ccc(NC(=O)C=C(C)C)cc1 (stereo not shown) [Compound 29i] : 62 ± 5 %E2
CC(C)=CC(=O)Nc1ccc(C2=C(c3ccc(O)cc3)C3OC2CC3S(=O)(=O)N(CC(F)(F)F)c2ccc(O)cc2)cc1 (stereo not shown) [Compound 29c] : 76 ± 1 %E2
COc1ccc(N(CC(F)(F)F)S(=O)(=O)C2CC3OC2C(c2ccc(O)cc2)=C3c2ccc(NC(=O)C=C(C)C)cc2)cc1 (stereo not shown) [Compound 29f] : 35 ± 2 %E2

Here is another molecule to look at.
For C[C@]12CC[C@@H]3c4ccc(O)cc4C[C@@H](CCCCCCCCC[S+]([O-])CCCC(F)(F)C(F)(F)F)[C@H]3[C@@H]1CC[C@@H]2O (stereo partly shown) [Ful, Fulvestrant, reference compound] the molecule record lists Antagonist mode ERα Eff (%E2) as 80 ± 2 %E2
